Listed here are compounds together with their documented melting point.

compound | result
Cc1c(-c2ccccc2)[nH]c(=O)n1C1CCN(Cc2cccc(Br)c2)CC1 | 263 to 265 °C
C#CCS(=O)c1ncc(Cl)cn1 (centres undefined) | 92 °C
COc1ccc2c(ccc3c4cc5c(cc4nnc23)OCO5)c1 | 258 to 260 °C
O=C1CCN2CC3c4ccccc4CCc4cccc(c43)C2C1 (centres undefined) | 163 to 165 °C
c1coc(-c2nc(NCC3CC3)cc(-n3cccn3)n2)c1 | 101 to 102 °C
CC(Br)c1ccc(C(=O)c2cccs2)cc1 (centres undefined) | 71.1 °C

-- ask Quick check: melting point of COC(=O)c1ccc(-c2nn(Cc3ccccc3)c3ccc(N)cc23)o1 ?
-- reply 195 to 196 °C

-- ask Quick check: melting point of COCCOCCn1cc(C(=O)NCc2ccc(Cl)cc2)c(=O)c2cc(CSC)ccc21 ?
-- reply 154 to 155 °C

-- ask Quick check: melting point of CN(C=C(C#N)C#N)c1ccc(O)cc1 ?
-- reply 187 to 189 °C

-- ask Quick check: melting point of Cc1[nH]c(=O)[nH]c1C(=O)c1ccncc1 ?
-- reply 295 to 296 °C

-- ask Quick check: melting point of CC(C)(C)ONC(=O)c1ccc(Cc2ccc(N)cc2)cc1 ?
-- reply 110 to 118 °C

-- ask Quick check: melting point of CN(C)CCCOc1ccccc1CC(=O)O ?
-- reply 98 °C

-- ask Quick check: melting point of Cc1cc(Oc2c(Cl)cc(C(F)(F)F)cc2Cl)nn1C(=O)NCCO ?
-- reply 124 to 126 °C

-- ask Quick check: melting point of NS(=O)(=O)c1ncccc1C(F)(F)F ?
-- reply 135 to 140 °C

-- ask Quick check: melting point of Cc1nc(C(F)(F)F)ccc1C(=O)c1c(S(C)=O)noc1C1CC1 (centres undefined) ?
-- reply 96 to 97 °C

-- ask Quick check: melting point of Cc1nc(-c2[nH]c3ccccc3c2C#N)no1 ?
-- reply 209 to 212 °C

-- ask Quick check: melting point of Nc1ncc(Cl)cc1O ?
-- reply 196 to 201 °C

-- ask Quick check: melting point of CC(C)c1c(C(=O)Nc2ccccc2)c(-c2ccccc2)c(-c2ccc(F)cc2)n1CCCC(O)C(O)CC(=O)N(c1ccccc1)c1ccccc1 (centres undefined) ?
-- reply 228 to 233 °C

-- ask Quick check: melting point of CN(C)C(=S)Oc1ccc(C(=O)c2ccc(C#N)cc2)cc1 ?
-- reply 162 °C

-- ask Quick check: melting point of CNC(=O)N1CCSC1c1ccc(O)cc1 (centres undefined) ?
-- reply 218 to 220 °C

-- ask Quick check: melting point of COc1ccc(C(=O)O)c(OC(C)C)c1Br ?
-- reply 109 to 110 °C

###

readoutKind: melting point

Below: 4 compounds and their reported melting point.
compound | melting point
CCOC(=O)C1=C(C)NC(C)=C(C(=O)OCCN2CCN(C(c3ccccc3)c3ccccc3)CC2)C1c1cccc(Cl)c1 (stereo unspecified) | 72 to 75 °C
O=C1CC(c2ccc(C3CCCCCC3)cc2)C(=O)O1 (stereo unspecified) | 102 to 104 °C
CCOC(=O)N1CC[C@@H]2CC(=O)c3cc([N+](=O)[O-])ccc3C[C@H]2C1 (relative stereo) | 112 to 114 °C
CCOC(=O)c1cc2ccc(C(C)C)nc2s1 | 73 to 74 °C

-- ask Quick check: melting point of COc1cc(Cl)cc(CO)c1Cl ?
-- reply 58 to 64 °C

-- ask Quick check: melting point of COc1ccc2c(c1)CCC1C2CCC2(C)C(=O)C(Br)CC12 (stereo unspecified) ?
-- reply 146 to 149 °C

###

Listed here are molecules together with their documented melting point.

Below: 3 molecules and their reported melting point.
molecule | melting point
C=CCN(CC=C)c1nc(NC(C)=O)n2oc(=O)nc2n1 | 164 to 165 °C
CC(=O)c1cnn2ccccc12 | 96 to 97 °C
O=C(NC(=O)c1c(F)cccc1F)Nc1cccc(S(=O)(=O)C(F)(F)C(F)Cl)c1 (stereo not given) | 192 to 194 °C

-- ask Quick check: melting point of CCCCCCCCCCCCCCCCS(=O)(=O)NCCCCCCCN(C)C ?
-- reply 56 to 57.5 °C

-- ask Quick check: melting point of O=c1cc(-c2ccccc2)oc2ccc(OCCCCCCCN3CCC(O)CC3)cc12 ?
-- reply 135 to 136 °C

-- ask Quick check: melting point of COc1ccc2cccc(C(CO)CNC(=O)C3CC3)c2c1 (stereo not given) ?
-- reply 153 to 154 °C

-- ask Quick check: melting point of CN(Cc1cccc2c1C(=O)N(C1CCC(=O)NC1=O)C2=O)C(=O)NC(C)(C)C (stereo not given) ?
-- reply 188 to 190 °C

-- ask Quick check: melting point of Cc1cc(-n2ccnc2)c2cccc(OCc3c(Cl)ccc(S(=O)(=O)N4CC[C@H]4C(=O)O)c3Cl)c2n1 ?
-- reply 160 °C

-- ask Quick check: melting point of C=C(c1ccc(-n2cncn2)nc1)C1(c2ccc(F)cc2F)CO1 (stereo not given) ?
-- reply 120 to 122 °C

-- ask Quick check: melting point of Cc1noc(NS(=O)(=O)c2ccccc2-c2ccc(CC(C)C)cc2CNC=O)c1C ?
-- reply 78 to 83 °C

###

Listed here are compounds together with their documented melting point.

compoundSmiles | melting point
CCOC(=O)c1cnc2c(c(C)nc3ccnn32)c1O | 190 to 192 °C
N#Cc1nn(-c2c(Cl)cc(C(F)(F)F)cc2Cl)c(-n2cncn2)c1S(=O)(=O)C(F)(F)F | 172 to 174 °C
COc1c(Cl)ccc(-c2nc(Cl)c3c(ncn3C)n2)c1F | 184 to 186 °C

-- ask Quick check: melting point of O=C(O)Cc1ccc2c(c1)C(=O)c1cccc(Cl)c1CO2 ?
-- reply 173 to 176 °C

-- ask Quick check: melting point of O=[N+]([O-])c1cc(I)cnc1Cl ?
-- reply 77 to 79 °C

-- ask Quick check: melting point of COc1ccnc(CCC(=O)O)c1 ?
-- reply 131 to 132 °C

###

readoutKind: melting point

-- ask Quick check: melting point of CCCC(CCC)n1nnc2c(Nc3c(Cl)cc(OC)cc3OC)nc(C)cc21 ?
-- reply 157 to 158 °C

-- ask Quick check: melting point of CC(c1oc2ccccc2c(=O)c1-c1cccc(F)c1)n1nc(-c2csc(CO)c2)c2c(N)ncnc21 (stereo not given) ?
-- reply 154 to 156 °C

-- ask Quick check: melting point of N#CCCCN1CC=C(c2ccccc2)CC1 ?
-- reply 57 to 59 °C

-- ask Quick check: melting point of COc1ccc(CCNC(=O)N(O)C(C)C)cc1OC ?
-- reply 113 to 114 °C

-- ask Quick check: melting point of CCOC(=O)c1cc(C#N)c(C)nc1N1CCCCC1 ?
-- reply 72 to 74 °C

-- ask Quick check: melting point of CC(NC(=O)Cc1cc(F)cc(F)c1)C(=O)NC1C(=O)NCc2ccc(F)cc21 (stereo not given) ?
-- reply 195 to 200 °C

###

readoutKind: melting point (°C)
# output: bare number, implied unit °C

-- ask Quick check: melting point of Cc1[nH]c(=O)n(C2CCCCC2)c1-c1ccc(OCc2ccccc2)cc1 ?
-- reply 262

-- ask Quick check: melting point of CC(C)(C)c1cccc(S(=O)(=O)n2c(CCCCC(=O)O)cc3cc(C(F)(F)F)ccc32)c1 ?
-- reply 135

###

Listed here are compounds together with their documented melting point.

Below: 4 compounds and their reported melting point.
compoundSmiles | melting point
CN(O)C(=O)Nc1cc(Cl)cc(Cl)c1 | 131 to 132 °C
Cc1cc(S)n2nc(C(=O)NN)nc2n1 | 221 to 222 °C
CCOC(=O)N1C[C@@H]2CC[C@H]1C(=O)C2 | 68.5 to 69.5 °C
COc1cc(OC)c2c(=O)[nH]c(-c3cc(C)c(OCCN4CCN(C(C)=O)CC4)c(C)c3)nc2c1 | 213 to 214 °C

# next compound below
-- ask Quick check: melting point of COCCN1CCc2ccc(Nc3ncc(Cl)c(Nc4ccc(N5CCOCC5)cc4OCCC#N)n3)cc2CC1 ?
-- reply 91 to 96 °C

###

Listed here are compounds together with their documented melting point.

Below: 3 compounds and their reported melting point.
compound | melting point
CNC(=O)c1c(NC(=O)CCl)c(OC)c(C(=O)NC)c(NC(=O)CCl)c1OC | 146 to 148 °C
OCCCCCCCCCCCOc1ccccc1 | 56 to 58 °C
Cc1nc(NC(=O)CC2CC2)sc1C(=O)NCc1ccccc1 | 136 to 139 °C

-- ask Quick check: melting point of O=C1N(Cc2ncccc2C(F)(F)F)c2ccccc2C12COc1cc3[nH]ncc3cc12 (stereo not given) ?
-- reply 152 to 154 °C

-- ask Quick check: melting point of Cc1ccc(S(=O)(=O)OCC2CCC=CO2)cc1 (stereo not given) ?
-- reply 45 to 46 °C

-- ask Quick check: melting point of COC1=C(OC)C(=O)C(CCCCCCCCCCCO)=C(C)C1=O ?
-- reply 57 °C

-- ask Quick check: melting point of NC(=O)C1CCN(c2ncncc2Br)CC1 ?
-- reply 188 to 190 °C

-- ask Quick check: melting point of CCCCCCCCCCC(C)(C)C(=O)Nc1c(C)c(N)c(C)c2c1OC(C)(C)C2 ?
-- reply 125 °C

-- ask Quick check: melting point of CC1CCC2(OC1)OC1CC3C4CCC5CC(O[Si](C)(C)C)CCC5(C)C4CCC3(C)C1C2C (stereo not given) ?
-- reply 197 to 198 °C

-- ask Quick check: melting point of CCCCOc1c(CNC(=O)OC(C)(C)C)n(CC(C)(C)C)c(=O)c2ccc(CO)cc12 ?
-- reply 92 to 93 °C
